test system: CAL-12T; test: relative viability (nuclei count vs DMSO), 5 days (fraction); higher = more cells survive; details: first compound 4 µM
Property Label: relative viability
// return just the number, without any unit appended

Worked cases, answers included:
Compound: COc1cc(N2CCC(C(N)=O)CC2)ccc1Nc1nc(N)c(Cl)c(Nc2ccccc2S(=O)(=O)C(C)C)n1 [HG-5-88-01] + C[C@]1(O)C[C@@H](c2nc(-c3ccc4ccc(-c5ccccc5)nc4c3)c3c(N)nccn32)C1 [Linsitinib] (partner 1 µM)
Quantitative Result: 0.726
--
Compound: Clc1ccc(Nc2nnc(Cc3ccncc3)c3ccccc23)cc1 [Vatalanib] + COc1cc2c(Oc3ccc(NC(=O)C4(C(=O)Nc5ccc(F)cc5)CC4)cc3F)ccnc2cc1OCCCN1CCOCC1 [Foretinib] (partner 0.25 µM)
Quantitative Result: 1.05
--
Compound: C[C@@H]1CN(CC(=O)Nc2ccc3c(c2)Cc2cccc(-c4cc(=O)cc(N5CCOCC5)o4)c2S3)C[C@H](C)O1 + C[C@@H](Oc1cc(-c2cnn(C3CCNCC3)c2)cnc1N)c1c(Cl)ccc(F)c1Cl [Crizotinib] (partner 1 µM)
Quantitative Result: 0.297

Let us move to another entry and its relative viability.
Please provide the recorded relative viability for Clc1ccc(Nc2nnc(Cc3ccncc3)c3ccccc23)cc1 [Vatalanib] + CC(=O)c1c(C)c2cnc(Nc3ccc(N4CCNCC4)cn3)nc2n(C2CCCC2)c1=O [Palbociclib] (partner 0.5 µM) , tested on CAL-12T.
0.425

###

test system: LXF-289; test: relative viability (nuclei count vs DMSO), 5 days (fraction); higher = more cells survive; conditions: first compound 0.1265 µM
In plain terms, low relative viability, meaning strictly below 0.6, gives class 1, and everything else gives class 0.

Compound: C[C@@H]1CN(CC(=O)Nc2ccc3c(c2)Cc2cccc(-c4cc(=O)cc(N5CCOCC5)o4)c2S3)C[C@H](C)O1 + C[C@@H](Oc1cc(-c2cnn(C3CCNCC3)c2)cnc1N)c1c(Cl)ccc(F)c1Cl [Crizotinib] (partner 1 µM)
Classification: class 0
--
Compound: Clc1ccc(Nc2nnc(Cc3ccncc3)c3ccccc23)cc1 [Vatalanib] + Cc1nc(Nc2ncc(C(=O)Nc3c(C)cccc3Cl)s2)cc(N2CCN(CCO)CC2)n1 [Dasatinib] (partner 0.075 µM)
Classification: class 1
--
Compound: C[C@@H]1CN(CC(=O)Nc2ccc3c(c2)Cc2cccc(-c4cc(=O)cc(N5CCOCC5)o4)c2S3)C[C@H](C)O1 + CS(=O)(=O)N1CCN(Cc2cc3nc(-c4cccc5[nH]ncc45)nc(N4CCOCC4)c3s2)CC1 [Pictilisib] (partner 1 µM)
Classification: class 0
--
Compound: C[C@@H]1CN(CC(=O)Nc2ccc3c(c2)Cc2cccc(-c4cc(=O)cc(N5CCOCC5)o4)c2S3)C[C@H](C)O1 + COc1cc2c(Oc3ccc(NC(=O)C4(C(=O)Nc5ccc(F)cc5)CC4)cc3F)ccnc2cc1OCCCN1CCOCC1 [Foretinib] (partner 0.25 µM)
Classification: class 0

Does this compound meet the criterion relative viability < 0.6? Clc1ccc(Nc2nnc(Cc3ccncc3)c3ccccc23)cc1 [Vatalanib] + CC(=O)c1c(C)c2cnc(Nc3ccc(N4CCNCC4)cn3)nc2n(C2CCCC2)c1=O [Palbociclib] (partner 0.5 µM)
class 1

Moving on to the next compound: COc1cc(N2CCC(C(N)=O)CC2)ccc1Nc1nc(N)c(Cl)c(Nc2ccccc2S(=O)(=O)C(C)C)n1 [HG-5-88-01] + CS(=O)(=O)CCNCc1ccc(-c2ccc3ncnc(Nc4ccc(OCc5cccc(F)c5)c(Cl)c4)c3c2)o1 [Lapatinib] (partner 2 µM)
class 0

Moving on to the next compound: COc1cc(N2CCC(C(N)=O)CC2)ccc1Nc1nc(N)c(Cl)c(Nc2ccccc2S(=O)(=O)C(C)C)n1 [HG-5-88-01] + COc1cccc2cc(-c3nc([C@H]4CC[C@H](C(=O)O)CC4)n4ncnc(N)c34)[nH]c12 [OSI-027] (partner 0.5 µM)
class 0

Moving on to the next compound: Clc1ccc(Nc2nnc(Cc3ccncc3)c3ccccc23)cc1 [Vatalanib] + CCNC(=O)c1noc(-c2cc(C(C)C)c(O)cc2O)c1-c1ccc(CN2CCOCC2)cc1 [Luminespib] (partner 0.01 µM)
class 0
